Test: physchem
READOUT TYPE: pKa
Just the number, please.

Use the examples below as a reference point.
| ITEM SMILES | pKa |
| --- | --- |
| COc1cc2ncnc(Nc3ccc(F)c(Cl)c3)c2cc1OCC1CCN(C)CC1 | 9.3 |
| COCCN1CCC(Oc2cc3c(Nc4cc(Cl)ccc4F)ncnc3cc2OC)CC1 | 8.1 |

// below: pKa requested for another molecule
# input Quick one: pKa of COc1cc2ncnc(Nc3cccc(Cl)c3F)c2cc1OC1CCN(C)CC1 ?
# output 8.8
